# assay_remarks: melting temperature; fluorescence melt of hairpins on a sequencing array, two-state fit, raised by 9.35 °C to match UV melts
# measurement_parameters: sodium 0.088 M
Reported values of Tm for individual entries

{"sequence": "GTTGAAGAAATTCAAC ((((((....))))))", "Tm [°C]": 45.8}
{"sequence": "GCTCCCGAAAGGGGTAGC ((((((....)))..)))", "Tm [°C]": 48.7}
{"sequence": "GCTGTGGGAAACTACAGC (((((.(....).)))))", "Tm [°C]": 53.1}
{"sequence": "GCGCTGGGAAACTGGCGC ((((..(....)..))))", "Tm [°C]": 57.3}
{"sequence": "GATCGTTGGAACGATC ((((((....))))))", "Tm [°C]": 54.4}
{"sequence": "GATCAATTCGTTGATC ((((((....))))))", "Tm [°C]": 48.6}

----------
Reported values of Tm for individual entries
# assay_remarks: melting temperature; fluorescence melt of hairpins on a sequencing array, two-state fit, raised by 9.35 °C to match UV melts
# measurement_parameters: sodium 0.088 M
outcome_measure: Tm (°C)

{"sequence": "GTAGTTCGAAAGAAATAC (((.(((....))).)))", "units": "°C", "assay_value": 42.2}
{"sequence": "GGGTCTACGAAAGTACCC (((..(((....))))))", "units": "°C", "assay_value": 40.1}
{"sequence": "GGAAACGAAAGTTTCC ((((((....))))))", "units": "°C", "assay_value": 63.3}
{"sequence": "GCATAGCGAAAGCAAGGC ((.(.((....)).).))", "units": "°C", "assay_value": 37.9}
{"sequence": "GGCCAGGGAAACCTGGTC (.(((((....))))).)", "units": "°C", "assay_value": 57.6}
{"sequence": "GGCATCGGAAACGACGCC (((.(((....))).)))", "units": "°C", "assay_value": 52.3}

----------
Reported values of folding enthalpy for individual entries
# assay_remarks: folding enthalpy; higher = less favourable; fluorescence melt of hairpins on a sequencing array, two-state fit
# measurement_parameters: sodium 0.088 M

{"sequence": "GTGAGAGAAATCTCAC ((((((....))))))", "folding enthalpy": "-32.4 kcal/mol"}
{"sequence": "GCCGAATCGAAAGATGGC (((..(((....))))))", "folding enthalpy": "-26.3 kcal/mol"}
{"sequence": "GGAGACGAAAGTCATCC ((((((....))).)))", "folding enthalpy": "-17.3 kcal/mol"}
{"sequence": "GCGTTTCGAAAGAACGC (((.(((....))))))", "folding enthalpy": "-33.8 kcal/mol"}
{"sequence": "GTACCAGAAATGGTAC ((((((....))))))", "folding enthalpy": "-33.1 kcal/mol"}
{"sequence": "GAAGGGAAACCTTC (((((....)))))", "folding enthalpy": "-20.9 kcal/mol"}
{"sequence": "GATCAAGCAATTGATC ((((((....))))))", "folding enthalpy": "-34.1 kcal/mol"}
{"sequence": "GATCAAAAGTTTGATC ((((((....))))))", "folding enthalpy": "-27.7 kcal/mol"}
{"sequence": "GATCATTATGATGATC ((((((....))))))", "folding enthalpy": "-43.7 kcal/mol"}
{"sequence": "GATCCCTCGTGGGATC ((((((....))))))", "folding enthalpy": "-40.2 kcal/mol"}
{"sequence": "GATCATCGTGATGATC ((((((....))))))", "folding enthalpy": "-38.4 kcal/mol"}
{"sequence": "GTGCTAGGAAACTAGCGC (.(((((....))))).)", "folding enthalpy": "-39.6 kcal/mol"}
{"sequence": "GATCCTGCCTAGGATC ((((((....))))))", "folding enthalpy": "-43.7 kcal/mol"}
{"sequence": "GCCTCGCGAAAGCGACGC ((.((((....)))).))", "folding enthalpy": "-16.5 kcal/mol"}
{"sequence": "GCAAGAGGAAACTCTCGC ((.((((....)))).))", "folding enthalpy": "-25.6 kcal/mol"}
{"sequence": "GATCCCCGTAGGGATC ((((((....))))))", "folding enthalpy": "-20.6 kcal/mol"}
{"sequence": "GATCCATATATGGATC ((((((....))))))", "folding enthalpy": "-44.1 kcal/mol"}
{"sequence": "GATCCGTGGTCGGATC ((((((....))))))", "folding enthalpy": "-38.8 kcal/mol"}
{"sequence": "GTAAACACGAAAGTGTAC (((..(((....))))))", "folding enthalpy": "-11.7 kcal/mol"}
{"sequence": "GGAAGCGAAAGCTCTCC ((((((....))).)))", "folding enthalpy": "-16.2 kcal/mol"}
{"sequence": "GATCCAAATGTGGATC ((((((....))))))", "folding enthalpy": "-33.8 kcal/mol"}
{"sequence": "GTATATCGAAAGATTTAC (((.(((....))).)))", "folding enthalpy": "-21.8 kcal/mol"}
{"sequence": "GATCGTAAGAACGATC ((((((....))))))", "folding enthalpy": "-35.1 kcal/mol"}
{"sequence": "GATCTGAAACAGATC ((((((...))))))", "folding enthalpy": "-31.6 kcal/mol"}
{"sequence": "GTGAAGCGAAAGCTGCAC (((.(((....))).)))", "folding enthalpy": "-35 kcal/mol"}
{"sequence": "GGGTTGGGAAACCGACTC (.((.((....)).)).)", "folding enthalpy": "-16.3 kcal/mol"}

----------
Reported values of Tm for individual entries
# assay_remarks: melting temperature; fluorescence melt of hairpins on a sequencing array, two-state fit, raised by 9.35 °C to match UV melts
# measurement_parameters: sodium 0.088 M

{"sequence": "GCAAGTTCGAAAGAATGC (((..(((....))))))", "units": "°C", "Tm": 27.3}
{"sequence": "GATCCTAGGGAGGATC ((((((....))))))", "units": "°C", "Tm": 51.8}
{"sequence": "GCCTTGCGAAAGCGTGGC (((..((....))..)))", "units": "°C", "Tm": 60.3}
{"sequence": "GCACGCCGAAAGGCATGC (((.(((....))).)))", "units": "°C", "Tm": 60.5}
{"sequence": "GAGCTGGGAAACCAACTC (((.(((....))).)))", "units": "°C", "Tm": 39.9}
{"sequence": "GCGACACGAAAGTGCCGC (((.(((....))).)))", "units": "°C", "Tm": 64.3}
{"sequence": "GATGCCGAAAGGCAATC ((((((....))).)))", "units": "°C", "Tm": 53}
{"sequence": "GATCGCTCAGGCGATC ((((((....))))))", "units": "°C", "Tm": 67.9}
{"sequence": "GGTCGAGGAAACTCGGTC (..((((....))))..)", "units": "°C", "Tm": 38.4}
{"sequence": "GCGATGCTTCGC ((((....))))", "units": "°C", "Tm": 62.3}
{"sequence": "GGTAACGAAAGTTACC ((((((....))))))", "units": "°C", "Tm": 64.1}
{"sequence": "GATCCAACCTTGGATC ((((((....))))))", "units": "°C", "Tm": 51.5}
{"sequence": "GTTGTGGGAAACCACGAC ((.((((....)))).))", "units": "°C", "Tm": 52.7}
{"sequence": "GTCTACGAAAGTACGGAC ((((((....)))..)))", "units": "°C", "Tm": 34.1}
{"sequence": "GCAACCGGAAACGGTCGC ((.((((....)))).))", "units": "°C", "Tm": 52.8}
{"sequence": "GATCGAGGAAACTCGGTC ((.((((....)))).))", "units": "°C", "Tm": 50.5}
{"sequence": "GCACGTCCGAAAGGATGC (((..(((....))))))", "units": "°C", "Tm": 36.8}
{"sequence": "GATCCTAACCAGGATC ((((((....))))))", "units": "°C", "Tm": 52}
{"sequence": "GCTACAGGAAACTGTAGC (((((((....)))))))", "units": "°C", "Tm": 63.7}
{"sequence": "GCATAACGAAAGTTCTGC (((.(((....))).)))", "units": "°C", "Tm": 45.6}
{"sequence": "GGGTACGAAAGTAGACCC ((((((....)))..)))", "units": "°C", "Tm": 46.2}
{"sequence": "GATCTTAGCAAGATC ((((((...))))))", "units": "°C", "Tm": 46.2}
{"sequence": "GCTAAGCGAAAGCACAGC (((..((....))..)))", "units": "°C", "Tm": 42.7}
{"sequence": "GCTAGGCCGAAAGGCAGC (((..(((....))))))", "units": "°C", "Tm": 47.8}
{"sequence": "GGGTACGGAAACGTATCC ((.((((....)))).))", "units": "°C", "Tm": 51.8}
